Target: hen egg lysozyme, P00698
Sequence (P00698 19-147): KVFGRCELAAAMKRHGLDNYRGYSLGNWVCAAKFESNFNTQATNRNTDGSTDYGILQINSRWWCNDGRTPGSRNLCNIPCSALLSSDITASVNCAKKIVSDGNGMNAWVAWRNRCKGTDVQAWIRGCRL
Experiment: ELISA
Conditions: chain shown with the change;; parent: est. 0.92; read off a plot
READOUT_TYPE: EC50 (µg/mL)

1) anti-lysozyme VHH D3-L11, wild type A79C (protein) DVQLVESGGGSVQAGGSLRLSCAASGSTDSIEYMTWFRQAPGKAREGVAALYTHTGNTYYTDSVKGRFTISQDKAKNMCYLRMDSVKSEDTAIYTCGATRKYVPVRFALDQSSYDYWGQGTQVTVSS    10
2) anti-lysozyme VHH D3-L11, wild type A79Q (protein) DVQLVESGGGSVQAGGSLRLSCAASGSTDSIEYMTWFRQAPGKAREGVAALYTHTGNTYYTDSVKGRFTISQDKAKNMQYLRMDSVKSEDTAIYTCGATRKYVPVRFALDQSSYDYWGQGTQVTVSS    9.5

[I] anti-lysozyme VHH D3-L11, wild type A79S (protein) DVQLVESGGGSVQAGGSLRLSCAASGSTDSIEYMTWFRQAPGKAREGVAALYTHTGNTYYTDSVKGRFTISQDKAKNMSYLRMDSVKSEDTAIYTCGATRKYVPVRFALDQSSYDYWGQGTQVTVSS
[II] anti-lysozyme VHH D3-L11, wild type A79I (protein) DVQLVESGGGSVQAGGSLRLSCAASGSTDSIEYMTWFRQAPGKAREGVAALYTHTGNTYYTDSVKGRFTISQDKAKNMIYLRMDSVKSEDTAIYTCGATRKYVPVRFALDQSSYDYWGQGTQVTVSS
Which gives the smaller EC50 number: I or II ? Respond using the label that marks the chosen record.
II
